System: LoVo
assay_text: Resistant index, ratio of IC50 for human LoVo/DX cells to IC50 for LoVo cells
Format: functional
Listed here: items and their measured Ratio IC50.
measured_quantity: Ratio IC50

[[record]]
chemical_structure = "COc1cccc2c1C(=O)c1c(O)c3c(c(O)c1C2=O)C[C@@](O)(C(=O)CO)C[C@@H]3O[C@H]1C[C@H](N)[C@H](O)[C@H](C)O1"
measured_quantity = "Ratio IC50"
result = 80.67

[[record]]
chemical_structure = "CC[C@@H](C(=O)[C@@H](C)[C@@H](O)[C@H](C)[C@@H]1O[C@@H]([C@@H](CC)C(=O)N[C@@H](Cc2ccc(O)cc2)C(=O)OC)CC[C@@H]1C)[C@H]1O[C@]2(C=C[C@@H](O)[C@]3(CC[C@@](C)([C@H]4CC[C@](O)(CC)[C@H](C)O4)O3)O2)[C@H](C)C[C@@H]1C"
measured_quantity = "Ratio IC50"
result = 0.48

[[record]]
chemical_structure = "CC[C@@H](C(=O)[C@@H](C)[C@@H](O)[C@H](C)[C@@H]1O[C@@H]([C@@H](CC)C(=O)N[C@@H](CO)C(=O)OC)CC[C@@H]1C)[C@H]1O[C@]2(C=C[C@@H](O)[C@]3(CC[C@@](C)([C@H]4CC[C@](O)(CC)[C@H](C)O4)O3)O2)[C@H](C)C[C@@H]1C"
measured_quantity = "Ratio IC50"
result = 0.44

[[record]]
chemical_structure = "CC[C@@H](C(=O)[C@@H](C)[C@@H](O)[C@H](C)[C@@H]1O[C@@H]([C@@H](CC)C(=O)O)CC[C@@H]1C)[C@H]1O[C@]2(C=C[C@@H](O)[C@]3(CC[C@@](C)([C@H]4CC[C@](O)(CC)[C@H](C)O4)O3)O2)[C@H](C)C[C@@H]1C"
measured_quantity = "Ratio IC50"
result = 1.11

[[record]]
chemical_structure = "CC[C@@H](C(=O)[C@@H](C)[C@@H](O)[C@H](C)[C@@H]1O[C@@H]([C@@H](CC)C(=O)N[C@@H](Cc2cnc[nH]2)C(=O)OC)CC[C@@H]1C)[C@H]1O[C@]2(C=C[C@@H](O)[C@]3(CC[C@@](C)([C@H]4CC[C@](O)(CC)[C@H](C)O4)O3)O2)[C@H](C)C[C@@H]1C"
measured_quantity = "Ratio IC50"
result = 0.23

